- PROCEDURE_DETAILS: Copper corrosion rate with and without bleach in a cooling water environment
- REPORTED_CONDITIONS: average copper corrosion rate, inhibitor concentration 5 ppm, with bleach
Consider the following compounds and their measured Corrosion Rate (mpy) with Bleach (1 FRC) readings.
Enter your answer as a number in mpy; do not include the unit.

>  <COMPOUND>
C(CCc1nnn[nH]1)Cc1nnn[nH]1

>  <READOUT_UNIT>
mpy

>  <RESULT_NUMBER>
0.0841

$$$$

// sample Cc1ccc2[nH]nnc2c1 [TT, 5-methyl-1H-benzotriazole, reference compound] , its Corrosion Rate (mpy) with Bleach (1 FRC) was 0.0995

// sample c1ccc2[nH]nnc2c1 [BZT, 1H-benzotriazole, reference compound] , its Corrosion Rate (mpy) with Bleach (1 FRC) was 0.1386

// sample CCCCc1ccc2[nH]nnc2c1 [BBT, 5-butyl-1H-benzotriazole, reference compound] , its Corrosion Rate (mpy) with Bleach (1 FRC) was 0.0189

---

Consider the following compounds and their measured Corrosion Rate (mpy) with Bleach (1 FRC) readings.
- PROCEDURE_DETAILS: Copper corrosion rate with and without bleach in a cooling water environment
- REPORTED_CONDITIONS: average copper corrosion rate, inhibitor concentration 5 ppm, with bleach
Enter your answer as a number in mpy; do not include the unit.

>  <COMPOUND>
C(CCCc1nnn[nH]1)CCCc1nnn[nH]1

>  <READOUT_UNIT>
mpy

>  <Corrosion Rate (mpy) with Bleach (1 FRC)>
0.027

$$$$

// sample "C(CCCc1nnn[nH]1)CCc1nnn[nH]1" , its Corrosion Rate (mpy) with Bleach (1 FRC) was 0.0204

// sample Cc1cc2nn[nH]c2cc1Cl [CITT, 5-methyl-6-chloro-1H-benzotriazole, reference compound] , its Corrosion Rate (mpy) with Bleach (1 FRC) was 0.0057

---

- PROCEDURE_DETAILS: Pimephales promelas 96-Hour Definitive Toxicity Test
- Type: in vivo
- REPORTED_CONDITIONS: Pimephales promelas, in vivo, other: waterborne exposure in test solution; composition of BDTZ
MEASURE: LC50 at 96 h

// sample "C(CCc1nnn[nH]1)Cc1nnn[nH]1" , its LC50 at 96 h was > 10000 µg/mL
